Entries below carry reported Ki on serotonin transporter (Rattus norvegicus, UniProt P31652).
Sequence (P31652 whole entry): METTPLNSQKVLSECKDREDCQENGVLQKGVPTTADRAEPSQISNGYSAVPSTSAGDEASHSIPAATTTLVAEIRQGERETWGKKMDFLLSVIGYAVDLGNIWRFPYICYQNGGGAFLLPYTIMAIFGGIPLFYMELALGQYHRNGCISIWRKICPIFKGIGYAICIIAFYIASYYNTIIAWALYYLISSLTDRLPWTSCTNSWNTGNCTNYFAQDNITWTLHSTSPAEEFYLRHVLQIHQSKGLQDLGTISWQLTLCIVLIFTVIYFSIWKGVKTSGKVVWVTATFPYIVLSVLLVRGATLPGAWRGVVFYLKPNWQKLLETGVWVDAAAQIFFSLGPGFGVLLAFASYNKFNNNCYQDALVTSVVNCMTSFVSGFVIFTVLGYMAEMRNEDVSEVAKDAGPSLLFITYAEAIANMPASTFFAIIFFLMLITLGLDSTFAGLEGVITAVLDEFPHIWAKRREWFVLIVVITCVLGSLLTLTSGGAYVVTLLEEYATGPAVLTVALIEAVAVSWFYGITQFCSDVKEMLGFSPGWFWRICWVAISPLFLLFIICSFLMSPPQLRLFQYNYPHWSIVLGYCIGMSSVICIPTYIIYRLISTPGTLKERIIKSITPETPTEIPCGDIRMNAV

Cc1ccc2c3c(ccc2n1)OCC(CNC1CCC(c2cn(C)c4ccc(F)cc24)C1)O3 (single isomer, unassigned) [Example 5-Isomer B] : 3 nM
Cc1ccc2c3c(ccc2n1)OC[C@H](CN(C)[C@@H]1CC[C@H](c2c[nH]c4ccc(F)cc24)C1)O3 (relative stereo) [Example 13] : 5.45 nM

Pending molecule:
# value lookup — system serotonin transporter (Rattus norvegicus, UniProt P31652), readout Ki, item Cc1ccc2c3c(ccc2n1)OC[C@H](CN[C@@H]1CC[C@H](c2c[nH]c4ccc(F)cc24)C1)O3 (single isomer, unassigned) [Example 3-Isomer A]
0.38 nM
